- measurement target: apo-human transferrin (apo-hTf) (Homo sapiens)
- Sequence (P02787 20-698): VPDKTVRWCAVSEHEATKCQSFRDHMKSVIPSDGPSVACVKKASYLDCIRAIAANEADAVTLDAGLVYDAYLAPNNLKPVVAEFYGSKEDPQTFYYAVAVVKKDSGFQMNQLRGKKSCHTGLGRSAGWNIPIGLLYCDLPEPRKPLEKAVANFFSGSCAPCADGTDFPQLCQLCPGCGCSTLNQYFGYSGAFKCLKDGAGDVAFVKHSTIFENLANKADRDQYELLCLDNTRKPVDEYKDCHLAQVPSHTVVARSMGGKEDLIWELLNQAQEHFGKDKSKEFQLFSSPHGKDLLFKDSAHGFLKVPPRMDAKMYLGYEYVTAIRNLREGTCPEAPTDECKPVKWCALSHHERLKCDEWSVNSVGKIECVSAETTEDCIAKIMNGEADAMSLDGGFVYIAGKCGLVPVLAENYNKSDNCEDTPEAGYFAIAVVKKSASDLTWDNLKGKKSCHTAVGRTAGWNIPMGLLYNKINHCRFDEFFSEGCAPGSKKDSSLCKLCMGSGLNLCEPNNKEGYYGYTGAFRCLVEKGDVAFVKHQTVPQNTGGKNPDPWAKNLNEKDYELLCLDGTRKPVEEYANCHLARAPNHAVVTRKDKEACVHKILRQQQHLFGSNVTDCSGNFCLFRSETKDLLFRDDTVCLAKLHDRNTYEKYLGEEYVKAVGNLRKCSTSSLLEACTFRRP
- assay procedure: Fluorescence quenching of apo-hTf
- Type: binding
- reported conditions: 317 K, pH 7.4
Please note: TRUE applies when Stern-Volmer quenching constant Ksv is 2000 M⁻¹ or greater, and FALSE applies otherwise.

Solved entries:
C1CCCC1.C1CCCC1.[Cl][W][Cl]	TRUE
[Cl][Zr+2][Cl].c1cc[cH-]c1.c1cc[cH-]c1	FALSE
[Cl-].[Cl-].[V+4].c1cc[cH-]c1.c1cc[cH-]c1	TRUE

Ask: For this compound, is measured Stern-Volmer quenching constant Ksv 2000 M⁻¹ or higher? N.N.[Cl][Pt][Cl] [(NH3)2Pt(II)Cl2, cis-diamminedichloroplatinum (II), reference compound]
Reply: FALSE

Reference source: paper PMC7668563
